experiment: ANTS/DPX liposome leakage assay, 3POPC/1POPG vesicles; format: biochemical; conditions: 0.5 mM vesicles, pH 7.4
Peptide Concentration-induced 50% ANTS/DPX leakage at pH 7.4 (L/P) 3POPC/1POPG Vesicle values by entry
// unit must come after the numeric part

The following sequences have reported results that may help.
{"columns": ["record sequence", "experimental value"],
 "data": [
  ["GLLDLLKLLLKAAG [DKK]", "156 L/P"],
  ["GLLDLLKLLLHAAG [DKH]", "274 L/P"],
  ["GLLDLLHLLLHAAG [DHH]", "692 L/P"]
]}

Consider the additional sequence presented here.
Prompt line: What Peptide Concentration-induced 50% ANTS/DPX leakage at pH 7.4 (L/P) 3POPC/1POPG Vesicle value was documented for this sequence, GLLHLLELLLKAAG [HEK] ?
Response line: 386 L/P
